target: Carbonic anhydrase 1 (Homo sapiens, UniProt P00915); assay: Binding affinity to recombinant human CA1 by DSF-based fluorescence thermal shift assay
Sequence (P00915 whole entry): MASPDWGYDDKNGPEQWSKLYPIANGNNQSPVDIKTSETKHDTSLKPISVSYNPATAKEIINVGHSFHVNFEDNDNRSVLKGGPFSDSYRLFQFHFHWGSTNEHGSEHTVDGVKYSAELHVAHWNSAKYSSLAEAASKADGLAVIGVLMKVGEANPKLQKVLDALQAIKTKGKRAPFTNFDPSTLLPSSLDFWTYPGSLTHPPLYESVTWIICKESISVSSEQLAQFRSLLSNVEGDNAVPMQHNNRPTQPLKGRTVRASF
Categorize each record by its Kd using bottom bin (below 0.9 µM), middle bin (0.9 µM to below 7 µM), top bin (7 µM or more)

Prompt: Which class holds Cc1c(Br)c(N2CC(C(=O)N/N=C/c3ccccc3)CC2=O)c(Br)c(C)c1S(N)(=O)=O (stereo not drawn) ?
Completion: top bin

Prompt: Which class holds Cc1cc(C)cc(N2CC(C(=O)O)CC2=O)c1 (stereo not drawn) ?
Completion: top bin

Prompt: Which class holds Cc1c(Br)c(N2CC(C(=O)O)CC2=O)c(Br)c(C)c1S(N)(=O)=O (stereo not drawn) ?
Completion: top bin

Prompt: Which class holds Cc1cc(C)n(NC(=O)C2CC(=O)N(c3cc(C)c(S(N)(=O)=O)c(C)c3Cl)C2)n1 (stereo not drawn) ?
Completion: middle bin

Prompt: Which class holds COC(=O)C1CC(=O)N(c2cc(C)c(S(N)(=O)=O)c(C)c2Cl)C1 (stereo not drawn) ?
Completion: bottom bin

Prompt: Which class holds Cc1cc(NCC(CC(=O)O)c2n[nH]c(=S)n2-c2ccccc2)cc(C)c1S(N)(=O)=O (stereo not drawn) ?
Completion: top bin

Prompt: Which class holds Cc1cc(N2CC(C(=O)N/N=C/c3ccc(Cl)cc3)CC2=O)cc(C)c1S(N)(=O)=O (stereo not drawn) ?
Completion: middle bin

Prompt: Which class holds Cc1cc(N2CC(C(=O)N/N=C/c3ccccc3)CC2=O)c(Cl)c(C)c1S(N)(=O)=O (stereo not drawn) ?
Completion: bottom bin

Prompt: Which class holds Cc1cc(N2CC(C(=O)NN)CC2=O)cc(C)c1S(N)(=O)=O (stereo not drawn) ?
Completion: top bin

Prompt: Which class holds COC(=O)C1CC(=O)N(c2c(Br)c(C)c(S(N)(=O)=O)c(C)c2Br)C1 (stereo not drawn) ?
Completion: top bin

Prompt: Which class holds NNC(=O)C1CC(=O)N(c2ccc(S(N)(=O)=O)cc2)C1 (stereo not drawn) ?
Completion: middle bin

----------
target: Carbonic anhydrase 13 (Homo sapiens, UniProt Q8N1Q1); assay: Binding affinity to recombinant human CA13 by DSF-based fluorescence thermal shift assay
Sequence (Q8N1Q1 whole entry): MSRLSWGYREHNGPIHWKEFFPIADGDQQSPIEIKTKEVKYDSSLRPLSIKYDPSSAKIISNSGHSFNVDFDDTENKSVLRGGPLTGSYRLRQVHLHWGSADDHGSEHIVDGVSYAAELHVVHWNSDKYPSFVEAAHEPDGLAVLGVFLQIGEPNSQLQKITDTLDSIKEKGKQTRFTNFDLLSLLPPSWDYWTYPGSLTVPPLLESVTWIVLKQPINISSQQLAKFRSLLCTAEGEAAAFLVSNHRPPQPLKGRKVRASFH
Property Label: pKd
On this scale, pKd is minus log10 of a concentration expressed in M (mol/L).

For this compound ( NNC(=O)C1CC(=O)N(c2ccc(S(N)(=O)=O)cc2)C1 (stereo not given) ), measured pKd is 5.11

For this compound ( Cc1cc(N2CC(C(=O)NNC(=S)Nc3ccccc3)CC2=O)cc(C)c1S(N)(=O)=O (stereo not given) ), measured pKd is 6.00

For this compound ( NS(=O)(=O)c1ccc(NC(=O)C2CC(=O)N(c3ccccc3Br)C2)cc1 (stereo not given) ), measured pKd is 6.70

----------
target: UniProtKB P22748; assay: Binding affinity to recombinant human CA4 by DSF-based fluorescence thermal shift assay
Sequence (P22748 whole entry): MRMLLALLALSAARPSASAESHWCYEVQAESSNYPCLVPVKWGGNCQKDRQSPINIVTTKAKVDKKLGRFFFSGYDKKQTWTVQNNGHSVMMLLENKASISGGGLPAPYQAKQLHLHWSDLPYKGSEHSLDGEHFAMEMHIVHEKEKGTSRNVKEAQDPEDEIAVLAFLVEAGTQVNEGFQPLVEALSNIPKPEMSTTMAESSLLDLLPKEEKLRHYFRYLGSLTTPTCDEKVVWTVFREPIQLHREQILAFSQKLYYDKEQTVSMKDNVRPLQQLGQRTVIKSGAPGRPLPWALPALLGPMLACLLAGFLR
Please provide measured Kd for the entries that follow.

For this compound ( NS(=O)(=O)c1ccc(NC(=O)C2CC(=O)N(c3ccccc3)C2)cc1 (stereo not drawn) ), measured Kd is 0.85 µM

For this compound ( Cc1cc(N2CC(C(=O)N/N=C/c3ccccc3)CC2=O)c(Cl)c(C)c1S(N)(=O)=O (stereo not drawn) ), measured Kd is 0.77 µM

For this compound ( COC(=O)C1CC(=O)N(c2cc(C)c(S(N)(=O)=O)c(C)c2Cl)C1 (stereo not drawn) ), measured Kd is 1 µM
